Molecular target: Bromodomain-containing protein 3 (Homo sapiens)
Sequence (Q15059 whole entry): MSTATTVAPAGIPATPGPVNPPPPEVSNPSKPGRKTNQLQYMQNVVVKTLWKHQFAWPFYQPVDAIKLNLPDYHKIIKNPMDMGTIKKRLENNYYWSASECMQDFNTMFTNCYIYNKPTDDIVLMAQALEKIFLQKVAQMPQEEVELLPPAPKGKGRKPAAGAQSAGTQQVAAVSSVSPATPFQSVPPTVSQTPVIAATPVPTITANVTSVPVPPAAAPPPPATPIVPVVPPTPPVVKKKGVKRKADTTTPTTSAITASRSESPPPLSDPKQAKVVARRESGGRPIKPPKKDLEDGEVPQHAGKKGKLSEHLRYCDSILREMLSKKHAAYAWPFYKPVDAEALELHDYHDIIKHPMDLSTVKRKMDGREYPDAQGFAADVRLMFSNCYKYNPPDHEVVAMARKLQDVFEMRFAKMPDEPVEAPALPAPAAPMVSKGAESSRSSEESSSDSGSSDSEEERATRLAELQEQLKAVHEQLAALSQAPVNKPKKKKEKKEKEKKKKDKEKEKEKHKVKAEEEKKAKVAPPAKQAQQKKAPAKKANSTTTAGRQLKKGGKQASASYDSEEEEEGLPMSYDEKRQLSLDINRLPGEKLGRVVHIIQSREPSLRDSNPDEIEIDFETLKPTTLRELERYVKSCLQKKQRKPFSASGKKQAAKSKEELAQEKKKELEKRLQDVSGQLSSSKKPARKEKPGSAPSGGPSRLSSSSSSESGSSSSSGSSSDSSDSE
Test: Displacement of tetra-acetylated histone H4 peptide (1-21) from BRD3 BD2 (unknown origin) incubated for 30 mins followed by further incubation with tetra-acetylated histone H4 peptide (1-21) for 30 mins by Alphascreen assay

# smilesText, IC50
measured = [
    ("COc1ccccc1S(=O)(=O)Nc1ccc2c3c(cc(-n4cnc(C)c4)nc13)C(=O)N2C", "49.8 µM"),
]

###

Test: Permeability of compound at 10 uM by PAMPA assay
Format: ADME
Conditions: read-out: permeability
Entries and their Papp at 10 µM
assayEndpoint: Papp at 10 µM

# smilesText, reportedMeasurement
rows = [
    ("COc1ccccc1S(=O)(=O)Nc1ccc2c3c(cc(-n4cnc(C)c4)nc13)C(=O)N2C", "0.117 ×10⁻⁶ cm/s"),
    ("COc1ccccc1S(=O)(=O)Nc1ccc2c3c(cc(-c4ccc(C)o4)cc13)C(=O)N2C", "0.006 ×10⁻⁶ cm/s"),
]

FYI, the data here is from ChEMBL document CHEMBL4354830.
